# Assay: Stability in mouse liver microsomes assessed as half life at 1 uM incubated upto 60 mins in presence of NADPH by LC-MS/MS analysis
# Assay type: ADME, Microsome
Assay endpoint: half-life at 1 µM (min)
Kindly provide the numeric value in min only, without the unit symbol.

Query: Report half-life at 1 µM for "CCOC(=O)CCCc1ccc(N/C=N/O)cc1" please.
Result: 12.8
